- System: T1, FLT-1 IgG (UniProt P17948 27-758)
- T1 construct: Construct only cited from Park et al. 1994; also called FLT-IgG; FLT-1 receptor-IgG chimera; not shown: IgG part of the chimera (captured by anti-human IgG Fc)
- T1 sequence (P17948 27-758): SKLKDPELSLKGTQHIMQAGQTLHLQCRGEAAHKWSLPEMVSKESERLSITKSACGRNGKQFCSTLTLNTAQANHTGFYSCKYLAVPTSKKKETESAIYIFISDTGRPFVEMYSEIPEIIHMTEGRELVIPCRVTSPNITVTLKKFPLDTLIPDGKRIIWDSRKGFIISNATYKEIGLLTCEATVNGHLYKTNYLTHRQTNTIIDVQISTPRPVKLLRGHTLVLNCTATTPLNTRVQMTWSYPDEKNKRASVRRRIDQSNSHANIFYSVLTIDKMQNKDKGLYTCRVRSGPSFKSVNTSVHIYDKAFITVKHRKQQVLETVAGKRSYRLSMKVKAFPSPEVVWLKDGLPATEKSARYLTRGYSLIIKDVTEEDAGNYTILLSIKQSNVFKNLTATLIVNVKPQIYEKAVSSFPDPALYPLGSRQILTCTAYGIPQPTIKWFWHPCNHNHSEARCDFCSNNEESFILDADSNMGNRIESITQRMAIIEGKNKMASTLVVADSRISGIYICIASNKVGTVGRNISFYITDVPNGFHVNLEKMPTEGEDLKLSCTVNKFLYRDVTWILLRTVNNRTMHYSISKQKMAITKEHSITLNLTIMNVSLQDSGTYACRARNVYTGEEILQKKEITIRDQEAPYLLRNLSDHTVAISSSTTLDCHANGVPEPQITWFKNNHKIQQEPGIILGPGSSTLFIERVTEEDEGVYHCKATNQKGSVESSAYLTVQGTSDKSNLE
- Assay Protocol: competition with 125I-VEGF165 for FLT-1-IgG, radioligand plate assay
- Method: After the supernatant was discarded, the wells were washed three times in washing buffer (0.01% Tween 80 in PBS). The plate was blocked (300 µl/well) for one hr in assay buffer (0.5% BSA, 0.03% Tween 80, 0.01% Thimerosal in PBS). The supernatant was discarded and the wells were washed. […] The supernatant was discarded, the plate washed, and individual microtiter wells were counted by gamma scintigraphy (LKB model 1277).
Recorded Metric: IC50 (ng/mL)
Report the figure in ng/mL without appending any unit label.

Task item: What does the data say about its IC50? Entry: purified CHO-derived VEGF165 (ligand, Homodimer; also called VEGF (CHO cell); wildtype VEGF165 derived from CHO cells) APMAEGGGQNHHEVVKFMDVYQRSYCHPIETLVDIFQEYPDEIEYIFKPSCVPLMRCGGCCNDEGLECVPTEESNITMQIMRIKPHQGQHIGEMSFLQHNKCECRPKKDRARQENPCGPCSERRKHLFVQDPQTCKCSCKNTDSRCKARQLELNERTCRCDKPRR
Reply: 0.95

Task item: What does the data say about its IC50? Entry: E44A VEGF (ligand, VEGF165 mutant from 293 cells, conditioned medium) APMAEGGGQNHHEVVKFMDVYQRSYCHPIETLVDIFQEYPDEIAYIFKPSCVPLMRCGGCCNDEGLECVPTEESNITMQIMRIKPHQGQHIGEMSFLQHNKCECRPKKDRARQENPCGPCSERRKHLFVQDPQTCKCSCKNTDSRCKARQLELNERTCRCDKPRR
Reply: 0.54

Task item: What does the data say about its IC50? Entry: E103A VEGF (ligand, VEGF165 mutant from 293 cells, conditioned medium) APMAEGGGQNHHEVVKFMDVYQRSYCHPIETLVDIFQEYPDEIEYIFKPSCVPLMRCGGCCNDEGLECVPTEESNITMQIMRIKPHQGQHIGEMSFLQHNKCACRPKKDRARQENPCGPCSERRKHLFVQDPQTCKCSCKNTDSRCKARQLELNERTCRCDKPRR
Reply: 0.74
